target-under-test: antibody G1 Fab fragment
Sequence (VH, as listed by the source, chain 1 of 2): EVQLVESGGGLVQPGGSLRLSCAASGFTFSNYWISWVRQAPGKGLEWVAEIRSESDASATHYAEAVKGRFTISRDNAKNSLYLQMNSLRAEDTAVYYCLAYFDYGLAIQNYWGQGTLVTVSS
Sequence (VL, as listed by the source, chain 2 of 2): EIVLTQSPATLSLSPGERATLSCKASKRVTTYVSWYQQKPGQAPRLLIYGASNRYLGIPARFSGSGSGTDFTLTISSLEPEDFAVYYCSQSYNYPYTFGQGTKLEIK
assay-name: Biacore competition: G1 Fab (50 nM) pre-incubated 1 h with 10 µM competing peptide, then flowed over N-biotinylated human α-CGRP on SA chip; percent of binding to chip-bound human α-CGRP blocked
Description: Y axis represents percentage of binding blocked by the presence of the competing peptide compared with the binding in the absence of the competing peptide. All these peptides are amidated at the C-terminus.
Ends that are not written are not given here.
experimental-endpoint: % Binding Blocked (%)
Give the value in % but do not write % after it.

Exercise: Request the reported % Binding Blocked associated with SCNTATCVTHRLAGLLSRSGGVVKDNFVPTNVGSEAF-NH2 (ends and bridges not checked; also: N-terminal biotin when captured on the SA chip, also called rat α (1-37); α-rat) [rat α-CGRP (1-37)]
Key: 100

Exercise: Request the reported % Binding Blocked associated with SGGVVKNNFVPTNVGSMAF-NH2 (also: N-terminal biotin when on the chip, the entry already carries K35M) [human α-CGRP K35M (19-37)]
Key: 100

Exercise: Request the reported % Binding Blocked associated with SGGVVKNNFVPTNVGSKAA-NH2 (the entry already carries F37A) [human α-CGRP F37A (19-37)]
Key: 91.7

Exercise: Request the reported % Binding Blocked associated with SGGVVKNNFVATNVGSKAF-NH2 (the entry already carries P29A) [human α-CGRP P29A (19-37)]
Key: 100

Exercise: Request the reported % Binding Blocked associated with SGGVVKNNFVPTNVGSEAF-NH2 (also: N-terminal biotin when on the chip, the entry already carries K35E) [human α-CGRP K35E (19-37)]
Key: 100
